Biological target: PAS domain-containing serine/threonine-protein kinase (Homo sapiens);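 also: reported value is the mean percent inhibition of PASK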
Settings: at 1 µM
reportedEndpoint: inhibition (%)
Kindly answer with a numeric value in %, unit omitted.

# count of solved cases: 2
-- ask For the compound CCn1c(-c2nonc2N)nc2cnc(Oc3cccc(NC(=O)c4ccc(OCCN5CCOCC5)cc4)c3)cc21 , report inhibition.
-- reply -0.7

-- ask Return value of inhibition for input COc1cc2ncn(-c3cc(OCc4ccccc4Cl)c(C(N)=O)s3)c2cc1OC , no commentary.
-- reply -0.88

---
-- ask Report inhibition, nothing else, for this compound: NS(=O)(=O)c1ccc(N/N=C2\C(=O)Nc3ccc(C(=O)NCCc4c[nH]cn4)cc32)cc1
-- reply -3.06

-- ask Give the reported inhibition for this compound. O=C1NC(=O)C(c2ccc(Cl)cc2)=C1Nc1ccc(Cl)c(C(=O)O)c1
-- reply -1.05

-- ask Consider the compound Fc1cccc(COc2ccc(Nc3ncnc4cc(-c5ccc[nH]5)sc34)cc2Cl)c1 . State its measured inhibition.
-- reply -0.43

* * *

Target: Ribosomal protein S6 kinase alpha-2 (Homo sapiens);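 also: value is the mean inhibition of RSK3 within GSK PKIS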
Conditions: at 1 µM
Listed here are compounds together with their documented inhibition.
Could you give me the number in %? Just the number is fine.

-- ask Output measured inhibition for this item: CNC(=O)c1cncc(/C=C/c2c(Cl)cccc2Cl)c1
-- reply 2.54

-- ask Using the record for COc1ccc(-c2nn3ncccc3c2-c2ccnc(Nc3ccc(Cl)c(C(F)(F)F)c3)n2)cc1 , state its measured inhibition.
-- reply 2.22

-- ask Determine its reported inhibition: COc1ccc2cc(-c3c(-c4ccncc4)nc(-c4ccc([S+](C)[O-])cc4)n3C)ccc2c1 (configuration not stated)
-- reply 3.12

-- ask Output inhibition of COC(=O)Nc1nc2cc(Oc3ccc(NC(=O)Nc4cccc(C(=O)O)c4)cc3)ccc2[nH]1
-- reply 2

-- ask Give the measured inhibition for COc1cc2ncn(-c3cc(O[C@@H](C)c4ccccc4Cl)c(C(N)=O)s3)c2cc1OC
-- reply 6.66

-- ask Specify measured inhibition for c1cnn2ncc(-c3ccnc(Nc4ccc5c(c4)OCCO5)n3)c2c1 .
-- reply 4.85

-- ask Give the reported inhibition for this compound. O=C1NC(=O)C(N2CCc3ccccc32)=C1c1ccc(Cl)cc1
-- reply 2.25

-- ask Please indicate inhibition recorded for O=C1NC(=O)C(c2ccc(Cl)cc2)=C1Nc1ccc(Cl)c(C(=O)O)c1
-- reply -1.11

-- ask Look up inhibition of Nc1ncnc2occ(-c3ccc(NC(=O)Nc4cccc(C(F)(F)F)c4)cc3)c12 and report it.
-- reply 52.9

-- ask Item COC(=O)Nc1nc2cc(Oc3cccc(NC(=O)Nc4cc(C(F)(F)F)ccc4F)c3)ccc2[nH]1 : provide inhibition
-- reply 2

***
-- ask Indicate its recorded inhibition; the compound in question is Cc1cccc(-c2n[nH]cc2-c2ccc3ncccc3n2)n1
-- reply 1.84

-- ask Given the compound CC1=C(C(=O)Nc2ccc3[nH]ncc3c2)C(c2ccc(F)cc2)NC(=O)N1 (configuration not stated) , write its reported inhibition.
-- reply 7.93

* * *

Target: CDK3/Cyclin E (Homo sapiens) (UniProt P24864+Q00526)
Sequence (P24864 whole entry, looked up): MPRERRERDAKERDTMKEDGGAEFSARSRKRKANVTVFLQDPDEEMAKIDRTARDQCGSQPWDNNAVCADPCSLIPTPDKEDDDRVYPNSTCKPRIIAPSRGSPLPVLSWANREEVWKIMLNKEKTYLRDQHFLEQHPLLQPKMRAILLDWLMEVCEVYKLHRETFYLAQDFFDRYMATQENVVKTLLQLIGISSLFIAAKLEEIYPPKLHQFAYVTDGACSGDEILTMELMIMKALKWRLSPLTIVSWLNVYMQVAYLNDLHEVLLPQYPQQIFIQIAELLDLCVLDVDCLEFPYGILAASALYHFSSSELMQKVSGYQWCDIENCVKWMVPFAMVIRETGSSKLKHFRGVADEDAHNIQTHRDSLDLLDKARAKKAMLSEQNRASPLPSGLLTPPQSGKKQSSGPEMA
Sequence (Q00526 whole entry, looked up): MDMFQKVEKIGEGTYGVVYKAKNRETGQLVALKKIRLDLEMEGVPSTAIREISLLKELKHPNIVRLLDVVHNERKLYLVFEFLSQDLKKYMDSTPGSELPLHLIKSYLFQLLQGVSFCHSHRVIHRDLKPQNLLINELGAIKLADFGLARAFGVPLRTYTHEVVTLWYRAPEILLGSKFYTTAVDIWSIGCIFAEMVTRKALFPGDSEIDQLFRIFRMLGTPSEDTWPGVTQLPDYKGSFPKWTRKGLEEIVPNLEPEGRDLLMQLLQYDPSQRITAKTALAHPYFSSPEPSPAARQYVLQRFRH
Details: at 1 µM
reportedEndpoint: inhibition (%)
Please state the figure in %; there is no need to write the unit.

In the examples that follow, each entry is paired with its recorded inhibition.
-- ask Find inhibition for COc1ccc(-c2nn3ncccc3c2-c2ccnc(Nc3ccc(Cl)c(C(F)(F)F)c3)n2)cc1 on CDK3/Cyclin E (Homo sapiens) (UniProt P24864+Q00526) and write it down.
-- reply -0.57

-- ask Recall the reported inhibition of CN(C)c1cc2c(Nc3ccc4nc(Cc5ccccc5)[nH]c4c3)ncnc2cn1 on CDK3/Cyclin E (Homo sapiens) (UniProt P24864+Q00526) and write it down.
-- reply -2.11

-- ask State inhibition on CDK3/Cyclin E (Homo sapiens) (UniProt P24864+Q00526). Entry: Cc1nn(C)c2cc(N(C)c3ccnc(Nc4cccc(S(N)(=O)=O)c4)n3)ccc12
-- reply -0.68

-- ask Give CDK3/Cyclin E (Homo sapiens) (UniProt P24864+Q00526) inhibition for the following compound: CCCN1CCC(Oc2cc(Nc3nc(Nc4cccc(F)c4C(N)=O)c4cc[nH]c4n3)c(OC)cc2Cl)CC1
-- reply 1.54

Further cases:
-- ask Report value: inhibition, system: CDK3/Cyclin E (Homo sapiens) (UniProt P24864+Q00526), compound: CS(=O)(=O)CCNCc1nc(-c2ccc3ncnc(Nc4ccc(F)c(Cl)c4)c3c2)cs1;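 also: each figure is a mean percent inhibition of the CDK3/cyclin E complex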
-- reply -2.13

* * *

Known inhibition of a selection of compounds
Target: Sphingosine kinase 1 (Homo sapiens);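 also: mean SPHK1 inhibition value reported from the GSK PKIS kinase panel screen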
Details: at 1 µM
Supply the numeric figure in %, leaving out any unit text.

-- ask Return reported inhibition. Input compound: Cc1nn(C)c2cc(N(C)c3ccnc(Nc4cccc(S(N)(=O)=O)c4)n3)ccc12
-- reply 1.31

-- ask Indicate the recorded inhibition value for this compound: CS(=O)(=O)Nc1ccc(N/C=C2\C(=O)Nc3ccccc32)cc1
-- reply 0.22

Continuing:
-- ask Please look at this compound and report its inhibition: O=C(Nc1n[nH]c2nc(-c3ccco3)c(Br)cc12)C1CC1
-- reply -1.04

-- ask Input CCn1c(-c2nonc2N)nc2c(C#CC(C)(C)O)nc(CN3CCCC3)cc21 , output reported inhibition.
-- reply 0.08

-- ask For the compound COc1ccc(-c2coc3ncnc(N)c23)cc1 , give its reported inhibition.
-- reply 2.86

-- ask Return inhibition for the following compound: CS(=O)(=O)CCNCc1ccc(-c2ccc3ncnc(Nc4ccc(OCc5cccc(F)c5)c(C(F)(F)F)c4)c3c2)o1
-- reply -2.4

-- ask Supply recorded inhibition for Fc1cccc(COc2ccc(Nc3ncnc4sc(-c5cccs5)cc34)cc2Cl)c1 here.
-- reply 1.25

-- ask Give recorded inhibition. Nc1nc(-c2ccccn2)c(-c2ccc3ncccc3n2)s1
-- reply -3.49

-- ask Please report inhibition for the following compound: Cc1cc(O)cc(C)c1/C=C/c1cncc(-c2nn[nH]n2)c1
-- reply -1.54

* * *

Molecular target: SRSF protein kinase 1 (Homo sapiens) (UniProt Q96SB4)
Sequence (Q96SB4 whole entry): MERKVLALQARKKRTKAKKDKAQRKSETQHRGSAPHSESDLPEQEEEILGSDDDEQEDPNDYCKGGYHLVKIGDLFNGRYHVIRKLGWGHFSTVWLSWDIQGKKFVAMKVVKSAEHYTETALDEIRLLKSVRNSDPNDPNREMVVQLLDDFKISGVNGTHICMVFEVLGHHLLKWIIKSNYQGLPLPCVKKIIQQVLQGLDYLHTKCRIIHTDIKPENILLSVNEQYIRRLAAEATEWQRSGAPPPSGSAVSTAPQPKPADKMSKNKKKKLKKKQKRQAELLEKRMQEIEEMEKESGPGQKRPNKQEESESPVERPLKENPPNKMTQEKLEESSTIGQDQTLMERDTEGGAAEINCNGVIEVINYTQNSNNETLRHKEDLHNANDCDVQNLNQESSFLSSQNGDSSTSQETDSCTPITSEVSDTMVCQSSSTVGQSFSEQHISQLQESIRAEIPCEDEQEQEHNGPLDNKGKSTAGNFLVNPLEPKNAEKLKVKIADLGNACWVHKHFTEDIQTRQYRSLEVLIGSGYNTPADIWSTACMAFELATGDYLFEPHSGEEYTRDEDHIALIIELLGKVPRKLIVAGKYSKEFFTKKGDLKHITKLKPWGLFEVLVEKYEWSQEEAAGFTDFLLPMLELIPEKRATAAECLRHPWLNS
Details: at 0.1 µM
Consider the following compounds and their measured inhibition readings.

-- ask Give the observed inhibition of CS(=O)(=O)CCN(CC#N)Cc1ccc(-c2ccc3ncnc(Nc4ccc(OCc5cccc(F)c5)c(Cl)c4)c3c2)o1 for SRSF protein kinase 1 (Homo sapiens) (UniProt Q96SB4).
-- reply -2.4%

-- ask Given O=C1NC(=O)C(c2ccc(Cl)cc2)=C1Nc1ccc(Cl)c(C(=O)O)c1 , report its inhibition on SRSF protein kinase 1 (Homo sapiens) (UniProt Q96SB4).
-- reply 1.64%

-- ask Find inhibition for CC(C)=Cc1cccc2c1/C(=N/Nc1ccc(S(N)(=O)=O)cc1)C(=O)N2 on SRSF protein kinase 1 (Homo sapiens) (UniProt Q96SB4) and write it down.
-- reply 0.13%

-- ask Provide SRSF protein kinase 1 (Homo sapiens) (UniProt Q96SB4) inhibition reading for CCn1c(-c2nonc2N)nc2cncc(C(=O)N3CCNCC3)c21 .
-- reply -1.32%

-- ask Give measured inhibition for NCc1ccc(-c2nc(-c3ccc(Cl)c(O)c3)c(-c3ccncc3)[nH]2)cc1 (SRSF protein kinase 1 (Homo sapiens) (UniProt Q96SB4)).
-- reply -1.76%

-- ask System SRSF protein kinase 1 (Homo sapiens) (UniProt Q96SB4). Read-out inhibition. Item CC1=C(C(=O)Nc2ccc3[nH]ncc3c2)C(c2ccc(Cl)c(Cl)c2)CC(=O)N1 (centres undefined) . Report value.
-- reply -1.56%

-- ask Fill in inhibition for COc1cc2ncn(-c3cc(OCc4ccccc4C(F)(F)F)c(C(N)=O)s3)c2cc1OC tested with SRSF protein kinase 1 (Homo sapiens) (UniProt Q96SB4).
-- reply -1.32%

-- ask // fetch inhibition; item: COC(=O)Nc1nc2cc(Oc3ccc(NC(=O)Nc4cccc(C(=O)O)c4)cc3)ccc2[nH]1 ; system: SRSF protein kinase 1 (Homo sapiens) (UniProt Q96SB4);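 also: values are mean percent inhibition of SRPK1 kinase, measured in the GSK PKIS screening panel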
-- reply -0.09%

-- ask Report inhibition on SRSF protein kinase 1 (Homo sapiens) (UniProt Q96SB4) for this entry: Cc1cccc(-c2n[nH]cc2-c2ccc3ncccc3n2)n1
-- reply -1.35%

* * *

Test system: Mast/stem cell growth factor receptor Kit (Homo sapiens), P10721 [T670I]
Sequence (P10721 whole entry T670I): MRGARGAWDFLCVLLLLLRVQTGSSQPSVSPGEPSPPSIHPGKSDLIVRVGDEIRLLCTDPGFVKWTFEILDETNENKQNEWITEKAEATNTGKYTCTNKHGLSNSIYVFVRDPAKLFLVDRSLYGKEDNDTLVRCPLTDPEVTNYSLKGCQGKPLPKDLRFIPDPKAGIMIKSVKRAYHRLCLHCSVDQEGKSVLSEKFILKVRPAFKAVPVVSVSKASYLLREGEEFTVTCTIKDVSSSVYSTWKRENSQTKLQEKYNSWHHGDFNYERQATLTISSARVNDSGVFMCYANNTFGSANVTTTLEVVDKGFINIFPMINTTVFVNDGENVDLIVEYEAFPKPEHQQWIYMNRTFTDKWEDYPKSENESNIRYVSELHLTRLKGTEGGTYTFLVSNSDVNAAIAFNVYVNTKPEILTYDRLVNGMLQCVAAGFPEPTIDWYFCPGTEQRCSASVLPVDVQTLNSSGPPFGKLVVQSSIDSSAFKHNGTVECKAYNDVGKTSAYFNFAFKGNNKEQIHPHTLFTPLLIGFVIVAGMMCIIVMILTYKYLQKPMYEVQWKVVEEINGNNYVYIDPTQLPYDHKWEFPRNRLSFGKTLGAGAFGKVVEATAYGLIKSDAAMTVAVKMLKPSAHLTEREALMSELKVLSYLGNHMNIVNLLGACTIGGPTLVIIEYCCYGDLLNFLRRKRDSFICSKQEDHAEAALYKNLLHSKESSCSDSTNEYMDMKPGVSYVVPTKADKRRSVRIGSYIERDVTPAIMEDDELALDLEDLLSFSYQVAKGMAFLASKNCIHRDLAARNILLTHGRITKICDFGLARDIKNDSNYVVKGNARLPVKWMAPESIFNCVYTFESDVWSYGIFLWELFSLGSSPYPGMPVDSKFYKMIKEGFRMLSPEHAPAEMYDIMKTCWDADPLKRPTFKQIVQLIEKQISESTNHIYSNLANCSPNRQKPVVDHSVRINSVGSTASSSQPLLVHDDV
Details: at 1 µM
Entries annotated with measured inhibition
// note: answer is a bare numeric in %

Completed entries (count: 3):
-- ask Please report inhibition for the following compound: CCn1c(-c2nonc2N)nc2cncc(C(=O)N3CCNCC3)c21
-- reply 3.08

-- ask In one line, give reported inhibition of the entry CCn1c(-c2nonc2N)nc2cncc(C(=O)N3CC[C@H](N)C3)c21 .
-- reply 3.02

-- ask Query inhibition for NCc1ccc(-c2nc(-c3ccc(Cl)c(O)c3)c(-c3ccncc3)[nH]2)cc1
-- reply 0.77

***
-- ask Give inhibition for the following compound: CS(=O)(=O)Nc1ccc(N/C=C2\C(=O)Nc3ccccc32)cc1
-- reply 61.3

-- ask Give the reported inhibition for this compound. Cc1cccc(-c2n[nH]cc2-c2ccc3ncccc3n2)n1
-- reply -0.51

-- ask Quickly give me recorded inhibition for Cc1ccc(NC(=O)c2ccnc(N3CCCC3)c2)cc1-c1ccc(C(=O)NCC2CC2)cc1
-- reply 3.2

-- ask For COc1ccc2cc(-c3c(-c4ccncc4)nc(-c4ccc([S+](C)[O-])cc4)n3C)ccc2c1 (configuration not stated) , write its inhibition.
-- reply -0.98
